compound	melting point
COC(=O)C1=C(C)N(C)C(C)=C(C(=O)OC)C1c1ccccc1	151 to 153 °C
Cc1nc2c(ncn2COCCO)c(=S)[nH]1	190 to 193 °C
CN1CCCC1=NC(=O)Nc1cc(Cl)ccc1Cl	148 to 150 °C
NC(=O)c1cn(-c2ccccn2)nc1-c1ccc([N+](=O)[O-])o1	250 °C
CC(C)CN1C(=O)CC(C)(C)CC1=O	48 to 52 °C
CC(C)c1nn(-c2ccc(C(F)(F)F)cn2)cc1COc1cccc(CC(=O)O)c1	114 to 115 °C
O=C(Nc1ccccc1)C1=Cc2ccccc2S1(=O)=O	> 220 °C
CCCCc1oc2ccccc2c1C(=O)c1ccc(OCCN(CC)CC)c(I)c1	100 to 102 °C
CCCCOCC(O)COc1cc(C)c(OCC(O)COCCCC)cc1C (stereo unspecified)	< 30 °C
CC(C)C1=NCCSC1=NO	167 to 169 °C
CCN(CC)C(C)CN1CCc2c(c(=O)oc3c(OC)c(OC)ccc23)C1 (stereo unspecified)	99 to 100 °C
CNc1ccc(CC(=O)C(=O)O)cc1	210 °C
N#Cc1ccc2ccn3cccc3c(=O)c2c1	213 to 217 °C
CC(C)(C)OC(=O)N[C@@H](CC(=O)O)C(=O)OC(C)(C)C	97 to 99 °C
Cc1ccc(-c2nc(CCCCCCOC(C)(C)C#N)c(C)o2)cc1	36 °C
Cc1cnc(C#Cc2ccccc2)s1	82 to 83 °C
